targetSystem: AChE from E. electricus (Electrophorus electricus)
Construct: purchased Sigma Aldrich
Sequence (O42275 24-633): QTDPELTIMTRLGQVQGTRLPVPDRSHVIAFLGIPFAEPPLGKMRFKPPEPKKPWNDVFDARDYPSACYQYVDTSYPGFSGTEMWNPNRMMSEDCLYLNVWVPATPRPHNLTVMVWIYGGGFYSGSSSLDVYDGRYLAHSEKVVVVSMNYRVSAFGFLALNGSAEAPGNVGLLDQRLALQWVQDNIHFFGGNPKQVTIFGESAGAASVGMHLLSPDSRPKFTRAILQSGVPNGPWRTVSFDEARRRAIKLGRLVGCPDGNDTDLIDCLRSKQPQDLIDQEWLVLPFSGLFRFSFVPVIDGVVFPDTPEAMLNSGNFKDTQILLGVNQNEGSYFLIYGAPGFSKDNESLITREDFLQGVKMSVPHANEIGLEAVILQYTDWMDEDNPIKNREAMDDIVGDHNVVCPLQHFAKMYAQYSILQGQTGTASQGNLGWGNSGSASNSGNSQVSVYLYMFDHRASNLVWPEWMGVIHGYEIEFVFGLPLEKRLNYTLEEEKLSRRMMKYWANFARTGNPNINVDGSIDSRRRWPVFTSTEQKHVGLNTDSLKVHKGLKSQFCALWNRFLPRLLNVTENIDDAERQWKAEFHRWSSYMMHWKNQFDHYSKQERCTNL
assayDetails: biochemical
Listed molecules paired with reported pIC50
Entry type: numeric. Quantity: pIC50, the -log10 of concentration in molar units.

>  <molecule>
Nc1c(-c2cc[n+](Cc3ccccc3Br)cc2)oc2ccccc12 [5l]

>  <pIC50>
5.87

$$$$
>  <molecule>
Nc1c(-c2cc[n+](Cc3ccccc3)cc2)oc2ccccc12 [5a]

>  <pIC50>
6.09

$$$$
>  <molecule>
Nc1c(-c2cc[n+](Cc3ccc(F)cc3)cc2)oc2ccccc12.[Cl-] [5h]

>  <pIC50>
6.06

$$$$
>  <molecule>
Nc1c(-c2cc[n+](Cc3ccccc3Cl)cc2)oc2ccccc12 [5i]

>  <pIC50>
6.15

$$$$

Now examine the next entry.
Per the records, this molecule ( Nc1c(-c2cc[n+](Cc3ccccc3F)cc2)oc2ccccc12.[Cl-] [5f] ) has pIC50 equal to 6.19

---

assayDetails: Cell viability assay (MTT) in PC12 cells
Format: cell-based
measurementSetup: rat
propertyLabel: viability at 24 h

>  <moleculeSmiles>
Nc1c(-c2cc[n+](Cc3ccc(F)cc3)cc2)oc2ccccc12.[Cl-]

>  <viability at 24 h>
88.2%

$$$$
>  <moleculeSmiles>
Nc1c(-c2cc[n+](Cc3ccccc3Cl)cc2)oc2ccccc12

>  <viability at 24 h>
90.2%

$$$$
>  <moleculeSmiles>
Nc1c(-c2cc[n+](Cc3ccccc3Br)cc2)oc2ccccc12

>  <viability at 24 h>
87.1%

$$$$
>  <moleculeSmiles>
Nc1c(-c2cc[n+](Cc3ccccc3F)cc2)oc2ccccc12.[Cl-]

>  <viability at 24 h>
86.4%

$$$$

// next item, viability at 24 h requested
Entry Nc1c(-c2cc[n+](Cc3ccccc3)cc2)oc2ccccc12 , viability at 24 h reported as 85.9%

---

targetSystem: horse serum BuChE (eqBuChE) (Equus caballus)
Construct: horse serum BuChE (eqBuChE, Sigma-Aldrich); purchased Sigma-Aldrich; host or cells: horse serum
assayDetails: biochemical
measurementSetup: Ellman's method, 25°C, mean ± SEM of three experiments
In this section we review reported IC50 values for a set of molecules.

>  <moleculeSmiles>
Nc1c(-c2cc[n+](Cc3cccc(F)c3)cc2)oc2ccccc12

>  <IC50>
2.89 µM

$$$$

Noted for Cc1ccccc1C[n+]1ccc(-c2oc3ccccc3c2N)cc1 : its IC50 reads 17.4 µM

Per the records, this molecule ( Nc1c(-c2cc[n+](Cc3ccc(F)cc3)cc2)oc2ccccc12.[Cl-] ) has IC50 equal to 5.05 µM

The recorded IC50 for entry Nc1c(-c2cc[n+](Cc3ccccc3Br)cc2)oc2ccccc12 equals 10.5 µM

Summary for this molecule, Nc1c(-c2cc[n+](Cc3ccccc3[N+](=O)[O-])cc2)oc2ccccc12 : IC50 is 28.6 µM

IC50 reading for Nc1c(-c2cc[n+](Cc3cccc(Cl)c3)cc2)oc2ccccc12 : 18.8 µM

Kindly note the recorded IC50 for Nc1c(-c2cc[n+](Cc3ccccc3Cl)cc2)oc2ccccc12 , which is 0.99 µM

---

targetSystem: horse serum BuChE (eqBuChE) (Equus caballus, UniProt P81908)
Construct: horse serum BuChE (eqBuChE, Sigma-Aldrich); purchased Sigma-Aldrich; host or cells: horse serum
Sequence (P81908 whole entry): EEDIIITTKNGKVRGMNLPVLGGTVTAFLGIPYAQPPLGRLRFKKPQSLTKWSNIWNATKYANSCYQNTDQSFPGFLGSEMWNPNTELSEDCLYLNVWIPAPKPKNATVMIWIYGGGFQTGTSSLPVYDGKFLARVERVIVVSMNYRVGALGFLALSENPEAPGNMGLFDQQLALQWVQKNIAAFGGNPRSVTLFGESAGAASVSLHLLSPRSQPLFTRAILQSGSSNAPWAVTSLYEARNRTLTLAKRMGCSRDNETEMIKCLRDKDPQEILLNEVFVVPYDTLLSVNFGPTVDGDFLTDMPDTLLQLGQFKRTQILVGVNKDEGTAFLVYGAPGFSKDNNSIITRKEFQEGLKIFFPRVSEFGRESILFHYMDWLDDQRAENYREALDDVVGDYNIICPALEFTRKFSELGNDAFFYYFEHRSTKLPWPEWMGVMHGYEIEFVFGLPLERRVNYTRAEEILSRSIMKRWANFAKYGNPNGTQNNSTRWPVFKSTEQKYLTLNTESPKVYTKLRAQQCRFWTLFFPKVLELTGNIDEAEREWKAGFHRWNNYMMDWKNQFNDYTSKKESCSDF
assayDetails: biochemical
measurementSetup: Ellman's method, 25°C, mean ± SEM of three experiments
// reported IC50 for each item listed
Express it in µM; write the number only.

>  <compound>
Nc1c(-c2cc[n+](Cc3ccc([N+](=O)[O-])cc3)cc2)oc2ccccc12 [5p]

>  <propertyLabel>
IC50

>  <recordedResult>
28.3

$$$$
>  <compound>
Nc1c(-c2cc[n+](Cc3ccccc3F)cc2)oc2ccccc12.[Cl-] [5f]

>  <propertyLabel>
IC50

>  <recordedResult>
0.55

$$$$

Next up:
Measured IC50 of Nc1c(-c2cc[n+](Cc3cccc(Br)c3)cc2)oc2ccccc12 [5m] : 13.9
